- subject-of-test: T1, melanocortin-1 receptor (MC1-R) of B-16 mouse melanoma cells (mouse, UniProt Q01727 1-315)
- T1 construct: whole, on cells; membranes prepared from the cells were used; also called Melanocortin Receptor 1
- protocol-description: 125I-NDP-α-MSH competition, B-16 membranes
Square brackets hold non-standard residues; d marks the D form. Nle = CCCC[C@H](N)C(=O)O
Provide the recorded % Inhibition at 1 µM for the entries that follow.
Note to self: number, then unit, no commentary.

Please list % Inhibition at 1 µM recorded for the binder Ac-SYS[Nle]EHFRWGKGVC-NH2 (not fully specified; also: oxorhenium(V) N3S1 chelate at Cys14) [metallopeptide 1-1]
95%

Please list % Inhibition at 1 µM recorded for the binder Ac-SYSC[Nle]EHFRWGKPV-NH2 (also: oxorhenium(V) N3S1 chelate at Cys4) [metallopeptide 1-11]
95%

Please list % Inhibition at 1 µM recorded for the binder Ac-SYS[Nle]EHCFRWGKPV-NH2 (also: oxorhenium(V) N3S1 chelate at Cys7) [metallopeptide 1-8]
42%

Please list % Inhibition at 1 µM recorded for the binder Ac-SYS[Nle]EHFCRWGKPV-NH2 (also: oxorhenium(V) N3S1 chelate at Cys8) [metallopeptide 1-7]
68%

Please list % Inhibition at 1 µM recorded for the binder Ac-SYS[Nle]ECHFRWGKPV-NH2 (also: oxorhenium(V) N3S1 chelate at Cys6) [metallopeptide 1-9]
74%

Please list % Inhibition at 1 µM recorded for the binder Ac-SYSMEHFRWGKPV-NH2 (not complexed to Re; also called α-MSH analog) [α-MSH parent polypeptide Ac-Ser-Tyr-Ser-Met-Glu-His-Phe-Arg-Trp-Gly-Lys-Pro-Val-NH2]
99%

Please list % Inhibition at 1 µM recorded for the binder Ac-SYCS[Nle]EHFRWGKPV-NH2 (also: oxorhenium(V) N3S1 chelate at Cys3) [metallopeptide 1-12]
96%

Please list % Inhibition at 1 µM recorded for the binder Ac-SYS[Nle]EHFRCWGKPV-NH2 (also: oxorhenium(V) N3S1 chelate at Cys9) [metallopeptide 1-6]
29%
